test system: BAEC (bovine aorta endothelial) normal cell line; experiment: MTT cytotoxicity assay, BAEC normal cells; type: cell-based; details: Bos taurus, BAEC, 24 h, 24 h with compound, IC50 ± SEM
PARAMETER_MEASURED: pIC50
Please treat pIC50 as minus the base-10 logarithm of the molar concentration.

INSERT INTO assay_data (molecule, experimental_result) VALUES
  ('COc1cccc2c1C(=O)c1c(O)c3c(c(O)c1C2=O)C[C@@](O)(C(=O)CO)C[C@@H]3O[C@H]1C[C@H](N)[C@H](O)[C@H](C)O1 [DOX, Doxorubicin, reference compound]', 5.32),
  ('Cc1ccc(Nc2nc(N3CCCCC3)nc(N3CCCCC3)n2)cc1', 5.74);

The reported pIC50 of the molecule Clc1ccc(Nc2nc(N3CCOCC3)nc(N3CCOCC3)n2)cc1 was 4.38

The reported pIC50 of the molecule Fc1ccc(Nc2nc(N3CCOCC3)nc(N3CCOCC3)n2)cc1 was 5.10

The reported pIC50 of the molecule COc1ccc(Nc2nc(N3CCCCC3)nc(N3CCCCC3)n2)cc1 was 4.82

# credit: paper PMC11959361
